inhibition at 1 µM listing for selected compounds.
# Tested on: U937 cells
# procedure_summary: MTT antiproliferative assay, U937 cells
# stated_conditions: Homo sapiens, U-937, read-out: U937 percentage inhibitory rate, 1 µM; U937 cells; MTT; mean of three experiments
Answer format: numeric, % implied, no suffix.

Some entries whose results are on file:
| compound_smiles | target_or_test_system | unit_of_measure | inhibition at 1 µM |
| --- | --- | --- | --- |
| Cc1ccccc1C(=O)Nc1cc2c(cc1-c1ccc(C(=O)NCc3ccc(C(=O)NO)cc3)cc1)OCO2 | U937 cells | % | 69.2 |
| O=C(CCCNC(=O)c1ccc(-c2cc3c(cc2NC(=O)c2ccc(C(F)(F)F)cc2)OCO3)cc1)NO | U937 cells | % | 48.5 |
| Nc1cc2c(cc1-c1ccc(C(=O)NCc3ccc(C(=O)NO)cc3)cc1)OCO2 | U937 cells | % | 75.6 |
| COc1ccc(C(=O)Nc2cc3c(cc2-c2ccc(C(=O)NCc4ccc(C(=O)NO)cc4)cc2)OCO3)cc1 | U937 cells | % | 94.5 |
| O=C(CCCNC(=O)c1ccc(-c2cc3c(cc2NC(=O)c2cccc(F)c2)OCO3)cc1)NO | U937 cells | % | 19.9 |
| CCCc1ccc(C(=O)Nc2cc3c(cc2-c2ccc(C(=O)NCCCC(=O)NO)cc2)OCO3)cc1 | U937 cells | % | 12.2 |
| O=C(CCCNC(=O)c1ccc(-c2cc3c(cc2NC(=O)c2ccc(F)c(C(F)(F)F)c2)OCO3)cc1)NO | U937 cells | % | 17.4 |

Okay, next one:
Can you share its inhibition at 1 µM? I mean this compound: O=C(NO)c1ccc(CNC(=O)c2ccc(-c3cc4c(cc3NC(=O)c3ccc(F)cc3)OCO4)cc2)cc1
59.2
